Origin of the recorded values: patent US10196363B2

# TEST TARGET: human RORγ (Homo sapiens, UniProt P51449)
# Construct: human RORγ, from Ser253 to Lys518; expressed in transfected cells; host or cells: CHO cells (Chinese hamster ovary), transient co-transfection with pG5-Luc
# EXPERIMENT NOTES: In vitro assay of inhibitory effect against RORγ transcriptional activity (GAL4-hRORγ LBD luciferase reporter gene assay in CHO cells)
# Assay type: cell-based
# ASSAY CONTEXT: GAL4-hRORγ LBD / pG5-Luc in CHO cells, 2 days incubation
EC50 values, listed per item

MOL SMILES: CC(C)C1=CN(CCC(=O)O)C(=O)N[C@]1(C)c1ccc(CCC2(C)CC2)c(Cl)c1
EC50: > 8 µM
//
MOL SMILES: CC(C)C1=CN(CCC(=O)O)C(=O)N[C@@]1(C)c1ccc(CCc2ccccc2)c(Cl)c1
EC50: > 0.512 µM

Here is another molecule to look at.
Query :: Please look up its EC50: CC(C)C1=CN(CCC(=O)O)C(=O)N[C@]1(C)c1ccc(CCC2CCC2)c(Cl)c1
Result :: > 8 µM

====

# TEST TARGET: mouse RORγ (Mus musculus, UniProt P51450)
# Construct: mouse RORγ, from Ile251 to Lys516; expressed in transfected cells; host or cells: CHO cells (Chinese hamster ovary), transient co-transfection with pG5-Luc
# Sequence (P51450 251-516): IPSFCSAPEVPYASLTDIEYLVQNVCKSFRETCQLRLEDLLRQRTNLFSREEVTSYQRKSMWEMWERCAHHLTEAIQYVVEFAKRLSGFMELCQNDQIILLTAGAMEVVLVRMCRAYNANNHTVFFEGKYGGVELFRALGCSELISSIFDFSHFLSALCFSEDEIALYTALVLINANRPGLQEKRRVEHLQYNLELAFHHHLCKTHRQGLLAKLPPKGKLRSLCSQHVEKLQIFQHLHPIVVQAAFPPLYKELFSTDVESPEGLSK
# EXPERIMENT NOTES: In vitro assay of inhibitory effect against RORγ transcriptional activity (GAL4-mRORγ LBD luciferase reporter gene assay in CHO cells)
# Assay type: cell-based
# ASSAY CONTEXT: GAL4-mRORγ LBD / pG5-Luc in CHO cells, 2 days incubation
EXPERIMENTAL ENDPOINT: EC50

Query :: Please look up its EC50: CC(C)C1=CN(CCC(=O)O)C(=O)N[C@@]1(C)c1ccc(CCCC(F)(F)F)c(Cl)c1 [Example 129]
Result :: < 32 nM

Query :: Please look up its EC50: CC(C)(C)CCc1ccc([C@]2(C)NC(=O)N(CCCC(=O)O)C=C2C2CCOCC2)cc1Cl [Example 92]
Result :: 20 nM

Query :: Please look up its EC50: CC(C)C1=CN(CCC(C)C(=O)O)C(=O)NC1(C)c1ccc(CCC(C)(C)C)c(Cl)c1 (single isomer, unassigned) [Example 25]
Result :: < 32 nM

====

# TEST TARGET: human RORγ (Homo sapiens, UniProt P51449)
# Construct: human RORγ, from Ser253 to Lys518; expressed in transfected cells; host or cells: CHO cells (Chinese hamster ovary), transient co-transfection with pG5-Luc
# EXPERIMENT NOTES: In vitro assay of inhibitory effect against RORγ transcriptional activity (GAL4-hRORγ LBD luciferase reporter gene assay in CHO cells)
# Format: cell-based
# ASSAY CONTEXT: GAL4-hRORγ LBD luciferase reporter, CHO cells; read-out: LUC EC50 hRORγ
EXPERIMENTAL ENDPOINT: EC50 (nM)

MOLECULE: COC1CC(C2=CN(c3ccc(C(=O)O)cc3)C(=O)N[C@@]2(C)c2ccc(CCC(C)(C)C)c(Cl)c2)C1 (single isomer, unassigned) [Example 276]
TEST TARGET: human RORγ (Homo sapiens, UniProt P51449)
U: nM
ENDPOINT VALUE: 28
--
MOLECULE: COCCN1C=C(c2cccc(C(=O)O)c2)[C@](C)(c2ccc(CCC(C)(C)C)c(Cl)c2)NC1=O
TEST TARGET: human RORγ (Homo sapiens, UniProt P51449)
U: nM
ENDPOINT VALUE: 25

====

# TEST TARGET: human RORγ (Homo sapiens, UniProt P51449)
# Construct: human RORγ, from Ser253 to Lys518; expressed in transfected cells; host or cells: CHO cells (Chinese hamster ovary), transient co-transfection with pG5-Luc
# Sequence (P51449 253-518): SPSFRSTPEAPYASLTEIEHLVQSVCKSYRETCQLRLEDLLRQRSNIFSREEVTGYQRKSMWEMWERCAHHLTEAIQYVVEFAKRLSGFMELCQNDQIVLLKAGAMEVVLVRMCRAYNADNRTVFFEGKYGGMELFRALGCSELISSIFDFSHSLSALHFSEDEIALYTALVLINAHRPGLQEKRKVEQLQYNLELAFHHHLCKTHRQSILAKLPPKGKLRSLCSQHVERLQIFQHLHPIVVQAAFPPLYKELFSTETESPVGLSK
# EXPERIMENT NOTES: In vitro assay of inhibitory effect against RORγ transcriptional activity (GAL4-hRORγ LBD luciferase reporter gene assay in CHO cells)
# Type: cell-based
# ASSAY CONTEXT: GAL4-hRORγ LBD luciferase reporter, CHO cells; read-out: LUC EC50 hRORγ
Where a name gives a salt, the structure may show the parent alone.
EXPERIMENTAL ENDPOINT: EC50 (nM)

COMPOUND: CC(C)C1=CN([C@@H](C)CC(=O)O)C(=O)N[C@@]1(C)c1ccc(CCC(C)(C)C)c(Cl)c1 [Example 247]
TEST TARGET: human RORγ (Homo sapiens, UniProt P51449)
EXPERIMENTAL ENDPOINT: EC50
ENDPOINT VALUE: 18

(a) CC(C)C1=CN(C2CCCC2C(=O)O)C(=O)N[C@@]1(C)c1ccc(CCC(C)(C)C)c(Cl)c1 (single isomer, unassigned) [Example 243]
(b) CC(C)C1=CN(c2ccc(C(=O)O)cn2)C(=O)N[C@@]1(C)c1ccc(CCC(C)(C)C)c(Cl)c1 [Example 281, hydrochloride]
Query :: For the two items a and b , which reports the higher EC50 value? Use the label to indicate which entry you chose.
Result :: a

====

# TEST TARGET: mouse RORγ (Mus musculus, UniProt P51450)
# Construct: mouse RORγ, from Ile251 to Lys516; expressed in transfected cells; host or cells: CHO cells (Chinese hamster ovary), transient co-transfection with pG5-Luc
# EXPERIMENT NOTES: In vitro assay of inhibitory effect against RORγ transcriptional activity (GAL4-mRORγ LBD luciferase reporter gene assay in CHO cells)
# Assay type: cell-based
# ASSAY CONTEXT: GAL4-mRORγ LBD / pG5-Luc in CHO cells, 2 days incubation
EXPERIMENTAL ENDPOINT: EC50 (nM)

MOLECULE: CC(C)(C)CCc1ccc([C@@]2(C)NC(=O)N(CCCC(=O)O)C=C2C2(C)CC2)cc1Cl
ENDPOINT VALUE: 1080

MOLECULE: CC(C)C1=CN(CCC(=O)O)C(=O)N[C@@]1(C)c1ccc2c(c1)CC(C)(C)C2
ENDPOINT VALUE: 1400

MOLECULE: CC(C)=Cc1ccc(C2(C)NC(=O)N(CCCC(=O)O)C=C2C(C)C)cc1 (racemic)
ENDPOINT VALUE: 1130
